meta.source: patent US20190309059A1

Target: cynomolgus IL-13 (purchased from sino biological) (cynomolgus) (UniProt Q0PW92)
Sequence (Q0PW92 entry or part of it): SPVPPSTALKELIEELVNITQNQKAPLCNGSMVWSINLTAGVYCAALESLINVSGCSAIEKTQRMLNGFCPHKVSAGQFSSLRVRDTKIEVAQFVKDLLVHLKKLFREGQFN
Assay: ELISA, cynomolgus IL-13; antibody at 0.004 nM
Mark Met only for OD450 nm values smaller than 0.08; exact matches and larger values are Not met.

* 29D9H8 (lead antibody, mouse hybridoma) (antibody, V domains shown, Mouse monoclonal antibody purified from hybridoma supernatant on Protein G) VH: QVQLQQSGAELVRPGASVTLSCKASGYTFTDYEMHWVKQTPVHGLEWIGGIDPETGGTASNQKFKGKAILTADKSSSTAYMELRSLTSEDSAVYYCTSGDYFGGGPFAYWGQGTLVTVSA VL: DIKMTQSPSSMYASLGERVTITCKASQDINSYLSWFQQKPGKSPKTLIYRANRLVDGVPSRFSGSGSGQDYSLTISSLDYEDMGIYYCLQYDEFPYTFGGGTKLEIK | Not met

# input is_below(OD450 nm, 0.08) for c35E2C3 (mouse-human chimeric IL-13 antibody) (antibody, V domains shown) VH: EVQLQESGPGLAKPSQTLSLTCSVTGYSITSDYWNWIRKFPGNKLEYMGYISYNGNTYYNPSLKSQISITRDTSKNQLYLQLKSATTEDTATYYCARLAKWTWYFDIWGTGTTVTVSS VL: DIQMNQSPSSLSASLGDTITITCHASQNINVWLSWYQQKPGSLPKLLIYKASDLHTGVPSRFSGSGSGTGFTLTISSLQPEDIATYYCQQGQSYPYTFGGGTKLEIK ?
# output Met

# input Item 35E2C3 (lead antibody, mouse hybridoma) (antibody, V domains shown, Mouse monoclonal antibody purified from hybridoma supernatant on Protein G) VH: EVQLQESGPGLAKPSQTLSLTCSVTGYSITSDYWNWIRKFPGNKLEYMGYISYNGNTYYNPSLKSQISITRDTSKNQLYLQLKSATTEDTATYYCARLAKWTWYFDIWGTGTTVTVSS VL: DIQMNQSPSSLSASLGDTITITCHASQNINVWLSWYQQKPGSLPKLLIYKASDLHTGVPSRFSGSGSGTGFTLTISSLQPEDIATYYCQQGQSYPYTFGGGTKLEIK : OD450 nm beneath 0.08, strictly?
# output Met

# input # strict comparison: is reported OD450 nm < 0.08? input = c29D9H8 (mouse-human chimeric IL-13 antibody) (antibody, V domains shown) VH: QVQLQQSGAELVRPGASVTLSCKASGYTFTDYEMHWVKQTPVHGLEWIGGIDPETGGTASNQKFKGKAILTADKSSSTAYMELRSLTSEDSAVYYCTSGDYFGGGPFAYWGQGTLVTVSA VL: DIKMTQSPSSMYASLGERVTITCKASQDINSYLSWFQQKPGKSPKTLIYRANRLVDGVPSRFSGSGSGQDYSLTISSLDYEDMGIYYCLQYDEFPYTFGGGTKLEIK
# output Not met

# input Strictly below 0.08: is that where OD450 nm of c28A2E11 (mouse-human chimeric IL-13 antibody) (antibody, V domains shown) VH: EVQLQQSGAELVKPGASVKLSCTASGFNIKDYYMHWVKQRTEQGLEWIGRIDPEDGETKYAPKFHDKATLTADTSSNTAYLQFSSLASEDTAVYYCTRYDYYGPFAYWGQGTLVTVSA VL: QAVVTQESVLTTSPGETVTLTCRSSTGAVTTSNYANWVQEKPDHLFTGLIGGTNNRAPGVPARFSGSLIGDKAALTITGAQTEDEAIYFCALWYINHFIFGSGTKVTVL sits?
# output Met
